TEST NAME: small-molecule microarray binders of probe aXIP, primary screen, biochemical, NeuroSMM set, 635/667 nm fluorescence (AID 1119);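 also: probe is the protein aXip251-270 applied at 1 µg/mL to compound-printed slides; binding of probe to printed compounds measured as 667 nm fluorescence plus signal to noise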
COND: higher = more signal, called active from +8 up or from −8 down
Recorded composite Z-score, one value per entry.
ASSAY READOUT: composite Z-score

COMPOUND	RECORDED RESULT
COc1ccc(NN2C(C(O)c3ccccn3)C=CC3C(=O)N(C4CCCCC4)C(=O)C32)cc1 (centres undefined)	0.0797
C=C[C@H](COC(C)=O)NS(=O)(=O)c1ccc(Br)cc1	0.131
CCN(CC)c1ccc(N2CC=CC34O[C@@H]5/C=C\CCC(C)OC(=O)C5[C@H]3C(=O)N(CCO)[C@@H]4C2=O)cc1 (some centres undefined)	0.736
COc1cc2c(cc1OC)CN(C(=O)[C@H]1[C@@H]3C(=O)O[C@@H](c4ccccc4)[C@@H](c4ccccc4)N3[C@@H](c3ccc(OCCO)cc3)[C@]13C(=O)Nc1ccc(C#CC4(O)CCCCCC4)cc13)CC2	-0.195
CCCc1cccc(=O)o1	-0.75
C=CCN1Cc2ccccc2C[C@@]2(N=C(c3ccc(OCCCO)cc3)O[C@H]2c2ccccc2)C1=O	0.667
CCCC[C@@H]1C[C@H]1[C@@H](NC(=O)c1cccnc1)c1ccc(-c2ccccc2)cc1	-0.0683
C=CCOC(=O)[C@H]1[C@@H]2C(=O)O[C@@H](c3ccccc3)[C@@H](c3ccccc3)N2[C@@H](c2ccc(OCCOC(=O)[C@H]3C[C@H]4C(=O)N[C@@H](Cc5ccccc5)C(=O)N4[C@H]3c3cccc(OCCO)c3)cc2)[C@]12C(=O)Nc1ccc(I)cc12	1.02
Cc1c(NC(=O)/C(C#N)=C/C=C/c2ccc(N(C)C)cc2)c(=O)n(-c2ccccc2)n1C	1.02
CN1C(=O)C2C(C1=O)C1C=C(c3ccc(CO)cc3)C2C(c2cccs2)N1Cc1cccc(OC(F)(F)F)c1 (centres undefined)	-0.228
COCCOC(=O)N1C(=O)[C@@]2(c3ccccc31)[C@H](C(=O)N1CCN(c3ncccn3)CC1)[C@H]1C(=O)O[C@H](c3ccccc3)[C@H](c3ccccc3)N1[C@@H]2c1ccc(OCCO)cc1	2.41
NC(=O)NCC#Cc1ccc2c(c1)[C@]1(C(=O)N2)[C@H](c2ccc(O)cc2)N2[C@H](c3ccccc3)[C@H](c3ccccc3)OC(=O)[C@H]2[C@@H]1C(=O)Nc1nc2ccccc2s1	0.0296
CCCCN1CC=CC23O[C@@H]4C=CCOC(=O)[C@@H]4[C@H]2C(=O)N(CCCO)[C@@H]3C1=O (some centres undefined)	0.064
[N-]=[N+]=Nc1ccccc1C[C@@]1(C(=O)O)N=C(c2ccc(OCCCO)cc2)O[C@@H]1c1ccccc1	0.77

---

TEST NAME: small-molecule microarray binders of probe aWnt5a, primary screen, biochemical, biotinylated probe, 635/667 nm fluorescence (AID 1113);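 also: score merges 667 nm fluorescence intensity with signal-to-noise per printed feature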
COND: higher = more signal

MOLECULE	composite z-score
C=C(C(=O)CC[C@H](OC(C)=O)c1cccc(OCCO)c1)C(C)C	-0.206
COCCCNC(=O)[C@]1(Cc2ccccc2N=[N+]=[N-])N=C(c2ccc(OCCCO)cc2)O[C@@H]1c1ccccc1N=[N+]=[N-]	0.14
COCCOC(=O)N1C(=O)[C@@]2(c3cc(C#Cc4ccc(OC)cc4)ccc31)[C@H](C(=O)N1CCCCCCC1)[C@H]1C(=O)O[C@H](c3ccccc3)[C@H](c3ccccc3)N1[C@@H]2c1ccc(O)cc1	-0.0239
CN1C2C=C(CCCO)C(C3C(=O)N(C(N)=O)C(=O)C32)C1c1cccs1 (stereo not drawn)	0.535
COC1(C)CN(Cc2ccccc2Br)[C@H](/C=C/c2ccccc2)[C@H](Cc2ccccc2)O1 (stereo partly drawn)	-0.176
O=C1NC(=O)C2C1C=CC(C(O)c1ccc(Br)cc1)N2Nc1ccccn1 (stereo not drawn)	0.149
CC=CC(O)C1C=CC2C(=O)N(C)C(=O)C2N1N1CCCCC1 (stereo not drawn)	0.0559
COc1ccc(NN2C(C(O)c3ccco3)C=CC3C(=O)N(C4CCCCC4)C(=O)C32)cc1 (stereo not drawn)	0.0613
O=C1O[C@@H](c2ccccc2)[C@@H](c2ccccc2)N2[C@@H](c3ccc(O)cc3)[C@]3(C(=O)Nc4ccc(C#CCCO)cc43)[C@@H](C(=O)Nc3nc4ccccc4s3)[C@H]12	-0.0405
COc1ccc([Si](C)(C)[C@@H]2[C@@H](CCn3cc([C@H](O)c4ccccc4)nn3)O[C@]3(C(=O)N(Cc4ccc(N5CCOC5=O)cc4)c4ccccc43)[C@H]2C)cc1	-0.0179
COCCCNC(=O)[C@@]1(Sc2ccc(C)cc2)CC(=O)N(C2Cc3ccccc3C2)[C@@H]1c1ccc(CO)cc1I	-0.154
[N-]=[N+]=NCc1ccccc1[C@H]1OC(c2ccc(OCCCO)cc2)=N[C@@]1(CCS(=O)(=O)c1ccccc1)C(N)=O	-0.096
CN(C)CCCNC(=O)[C@@H]1c2ccccc2C(=O)N(Cc2ccc(OC(F)(F)F)cc2)[C@H]1c1ccc(CO)cc1	0.0003
C=CCNC(=O)[C@@H]1[C@H]2C(=O)O[C@H](c3ccccc3)[C@H](c3ccccc3)N2[C@H](c2ccccc2OCCO)[C@@]12C(=O)N(C(=O)OCCOC)c1ccc(C#CC3=CCCCC3)cc12	-0.124
COCCOC(=O)N1C(=O)[C@@]2(c3ccccc31)[C@H](c1ccc(OCCO)cc1)N1[C@H](c3ccccc3)[C@H](c3ccccc3)OC(=O)[C@H]1[C@@H]2C(=O)Nc1nc2ccccc2s1	0.0431
CN(C)CCCN1C(=O)[C@@]2(c3ccc([N+](=O)[O-])cc3)CC(=O)N(CC34CC5CC(CC(C5)C3)C4)[C@@H]2c2ccc(CO)cc21	-0.152
C[C@]1(C(=O)NCCN2CCOCC2)c2ccccc2C(=O)N(Cc2ccc(OC(F)(F)F)cc2)[C@H]1c1ccc(CO)cc1	-0.252
C=CCC(OC(C)=O)[C@@H]1[C@@H](N(Cc2ccc(-c3ccccc3)cc2)C(=O)c2cccc3ccccc23)c2cc(OCCCO)ccc2N1C(=O)Cc1ccc2ccccc2c1 (stereo partly drawn)	-0.108
CC(C)C(O)C1C=CC2C(=O)N(C)C(=O)C2N1N(c1ccccc1)c1ccccc1 (stereo not drawn)	-0.0165
COC(=O)[C@H](Cc1ccccc1)N1CC(/C=C/C2CC2)=C[C@@H]1[C@@H](O)Cc1ccccc1	0.0079
O=c1cccc(-c2cccc(Cl)c2)o1	-0.228
CC(CO)N1C(=O)[C@@H]2C3C(=O)OCCC/C=C\[C@H]3OC23C=CCN(Cn2nnc4ccccc42)C(=O)[C@@H]13 (stereo partly drawn)	-0.152
O=C1c2ccccc2[C@](Cc2ccccc2I)(C(=O)NCc2ccccc2)[C@H](c2ccc(CO)cc2)N1C1CCCCC1	-0.0691
COc1cc(CO)cc(I)c1O[C@H]1C=C(C(=O)NCCO)C[C@@H](N(Cc2ccc(F)cc2)C(=O)C2CCCO2)[C@@H]1O (stereo partly drawn)	-0.124
CON(C)C(=O)C=C1C[C@@H](c2cccc(Cl)c2)O[C@@H](c2cccc(Cl)c2)O1	-0.0704
COC(=O)C(CC#Cc1ccc2c(c1)[C@]1(C(=O)N2)[C@H](C(=O)O)[C@H]2C(=O)O[C@H](c3ccccc3)[C@H](c3ccccc3)N2[C@@H]1c1ccccc1OCCO)C(=O)OC	-0.001
CCOC(=O)C[C@H]1[C@H](OC(=O)c2ccc(-c3ccccc3)cc2)[C@@H](NC(=O)c2ccc3ccccc3c2)c2cc(OCCCO)ccc2N1C(=O)c1ccc2ccccc2n1	-0.0445
C=CCOC(=O)[C@@H]1[C@H]2C(=O)O[C@H](c3ccccc3)[C@H](c3ccccc3)N2[C@H](c2ccc(OCCOC(=O)[C@H]3C[C@H]4C(=O)N[C@@H](CCCCNC(C)=O)C(=O)N4[C@H]3c3cccc(OCCO)c3)cc2)[C@@]12C(=O)Nc1ccc(I)cc12	-0.096

Origin of values: PubChem BioAssay
